Source of measurements: patent US20080096811A1

# key: entry, value: EC50
Target: human VPAC2 (Homo sapiens)
Construct: expressed in transfected cells
Sequence (P41587 24-438): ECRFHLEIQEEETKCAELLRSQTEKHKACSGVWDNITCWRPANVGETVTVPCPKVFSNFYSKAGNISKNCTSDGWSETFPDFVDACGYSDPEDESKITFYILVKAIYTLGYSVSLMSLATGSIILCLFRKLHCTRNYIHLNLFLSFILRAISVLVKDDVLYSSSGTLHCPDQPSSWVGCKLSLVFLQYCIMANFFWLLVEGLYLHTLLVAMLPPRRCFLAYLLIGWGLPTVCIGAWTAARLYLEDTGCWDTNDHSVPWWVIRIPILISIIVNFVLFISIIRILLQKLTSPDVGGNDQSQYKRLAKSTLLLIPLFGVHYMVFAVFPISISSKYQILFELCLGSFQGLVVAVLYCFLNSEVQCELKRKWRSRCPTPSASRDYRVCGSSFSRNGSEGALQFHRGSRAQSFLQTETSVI
Assay: DiscoveRx cAMP in vitro potency, human VPAC2
Format: cell-based
Where no end group is shown, it is not given here.
Write it as a number; the unit nM goes unstated.

Ac-HSDAVFTDNYTRLRKQVAAKKYLQSIKNSRTSPPP-NH2 [Agonist P32]    0.65

# context switch: different substance, same EC50
Reported EC50 for HSDAVFTDNYTRLRKQVAAKKYLQSIKNSRTSPPP-NH2 [Agonist P5] : what is it?
1.21
